Details: fish
The entries below come with measured log10 BCF values attached.

- compound: "Cc1ccc(C)c(C)c1"
  log10 BCF: 2.08
- compound: "CCCCOCCCC"
  log10 BCF: 1.86
- compound: "O=P(OCCCl)(OCCCl)OCCCl"
  log10 BCF: 0.11
- compound: "Cc1ccc(C)c(Cc2ccccc2)c1"
  log10 BCF: 3.14
- compound: "O=[N+]([O-])c1ccc(O)cc1"
  log10 BCF: 0.71
- compound: "c1cc[n+]2c(c1)-c1cccc[n+]1CC2"
  log10 BCF: 0.76
- compound: "Oc1cc(Cl)cc(Cl)c1"
  log10 BCF: 1.91
- compound: "ClCC(Cl)CCl"
  log10 BCF: 1.11
- compound: "CCCCC(CC)COP(=O)(O)OCC(CC)CCCC (stereo unspecified)"
  log10 BCF: 0.64
- compound: "FC(F)(Cl)C(F)(Cl)Cl"
  log10 BCF: 1.7
- compound: "OC(C(F)(F)F)C(F)(F)F"
  log10 BCF: 0.4
